- System Under Test: Non-receptor tyrosine-protein kinase TYK2 (Homo sapiens) (UniProt P29597);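 further: each value is a mean of the inhibition readings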
- Sequence (P29597 whole entry): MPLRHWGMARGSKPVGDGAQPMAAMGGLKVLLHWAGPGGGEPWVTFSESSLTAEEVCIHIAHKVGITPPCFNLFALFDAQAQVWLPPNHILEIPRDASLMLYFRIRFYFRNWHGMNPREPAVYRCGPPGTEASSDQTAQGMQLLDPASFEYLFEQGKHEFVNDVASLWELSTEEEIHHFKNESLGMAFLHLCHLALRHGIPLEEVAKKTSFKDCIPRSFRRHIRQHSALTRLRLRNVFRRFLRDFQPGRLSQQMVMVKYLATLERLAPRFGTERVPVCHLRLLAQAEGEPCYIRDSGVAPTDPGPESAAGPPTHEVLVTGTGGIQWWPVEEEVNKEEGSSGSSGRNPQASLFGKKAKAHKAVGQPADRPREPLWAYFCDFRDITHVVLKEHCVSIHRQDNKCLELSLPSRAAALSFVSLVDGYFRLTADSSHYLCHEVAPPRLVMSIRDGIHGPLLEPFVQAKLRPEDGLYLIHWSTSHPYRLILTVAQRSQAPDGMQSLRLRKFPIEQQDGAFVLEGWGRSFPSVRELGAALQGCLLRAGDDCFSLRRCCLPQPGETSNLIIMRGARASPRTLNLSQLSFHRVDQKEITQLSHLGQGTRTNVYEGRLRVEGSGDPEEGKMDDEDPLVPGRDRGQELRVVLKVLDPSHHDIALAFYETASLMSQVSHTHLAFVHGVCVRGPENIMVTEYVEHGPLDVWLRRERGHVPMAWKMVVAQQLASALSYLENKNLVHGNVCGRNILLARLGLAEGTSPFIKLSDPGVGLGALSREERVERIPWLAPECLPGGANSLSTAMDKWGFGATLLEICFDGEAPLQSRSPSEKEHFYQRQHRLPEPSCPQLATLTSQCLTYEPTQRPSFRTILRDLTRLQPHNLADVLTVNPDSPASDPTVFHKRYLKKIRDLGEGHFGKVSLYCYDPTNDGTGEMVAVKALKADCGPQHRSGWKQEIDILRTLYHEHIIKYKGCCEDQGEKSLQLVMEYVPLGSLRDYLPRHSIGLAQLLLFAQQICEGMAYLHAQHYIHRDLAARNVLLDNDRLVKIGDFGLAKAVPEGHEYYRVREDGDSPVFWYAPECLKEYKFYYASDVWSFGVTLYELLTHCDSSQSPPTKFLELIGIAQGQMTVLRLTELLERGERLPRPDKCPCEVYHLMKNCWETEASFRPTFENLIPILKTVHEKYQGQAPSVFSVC
- Measurement Parameters: at 0.1 µM
Each entry below carries its reported inhibition.
Give a bare numeral; the unit % is implied.

CN(C)C(=O)O[C@@H]1CN[C@@H](C#Cc2cc3ncnc(Nc4ccc(OCc5cccc(F)c5)c(Cl)c4)c3s2)C1 = 1.84
Nc1nccc(-c2c(-c3ccc(F)cc3)nn3cc(C(F)(F)F)ccc23)n1 = -4.56
Cc1ccc(NC(=O)CC2CC2)cc1-c1ccc(C(=O)NCC2CC2)cc1 = -4.51

Which inhibition is reported for this compound? COc1cccc(-n2ncc3c(N/N=C/c4ccc(C)cc4)ncnc32)c1
-1.37

Which inhibition is reported for this compound? Cc1nc(-c2ccccc2)n2nc(NCCCN3CCOCC3)ncc12
-3.48

Which inhibition is reported for this compound? COc1ccc2ncnc(Nc3ccc(OCc4ccccc4)cc3)c2c1
-2.4

###

- System Under Test: Tyrosine-protein kinase Mer (Homo sapiens) (UniProt Q12866);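 further: values are mean inhibition of human MER kinase, from the GSK PKIS profiling panel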
- Sequence (whole entry): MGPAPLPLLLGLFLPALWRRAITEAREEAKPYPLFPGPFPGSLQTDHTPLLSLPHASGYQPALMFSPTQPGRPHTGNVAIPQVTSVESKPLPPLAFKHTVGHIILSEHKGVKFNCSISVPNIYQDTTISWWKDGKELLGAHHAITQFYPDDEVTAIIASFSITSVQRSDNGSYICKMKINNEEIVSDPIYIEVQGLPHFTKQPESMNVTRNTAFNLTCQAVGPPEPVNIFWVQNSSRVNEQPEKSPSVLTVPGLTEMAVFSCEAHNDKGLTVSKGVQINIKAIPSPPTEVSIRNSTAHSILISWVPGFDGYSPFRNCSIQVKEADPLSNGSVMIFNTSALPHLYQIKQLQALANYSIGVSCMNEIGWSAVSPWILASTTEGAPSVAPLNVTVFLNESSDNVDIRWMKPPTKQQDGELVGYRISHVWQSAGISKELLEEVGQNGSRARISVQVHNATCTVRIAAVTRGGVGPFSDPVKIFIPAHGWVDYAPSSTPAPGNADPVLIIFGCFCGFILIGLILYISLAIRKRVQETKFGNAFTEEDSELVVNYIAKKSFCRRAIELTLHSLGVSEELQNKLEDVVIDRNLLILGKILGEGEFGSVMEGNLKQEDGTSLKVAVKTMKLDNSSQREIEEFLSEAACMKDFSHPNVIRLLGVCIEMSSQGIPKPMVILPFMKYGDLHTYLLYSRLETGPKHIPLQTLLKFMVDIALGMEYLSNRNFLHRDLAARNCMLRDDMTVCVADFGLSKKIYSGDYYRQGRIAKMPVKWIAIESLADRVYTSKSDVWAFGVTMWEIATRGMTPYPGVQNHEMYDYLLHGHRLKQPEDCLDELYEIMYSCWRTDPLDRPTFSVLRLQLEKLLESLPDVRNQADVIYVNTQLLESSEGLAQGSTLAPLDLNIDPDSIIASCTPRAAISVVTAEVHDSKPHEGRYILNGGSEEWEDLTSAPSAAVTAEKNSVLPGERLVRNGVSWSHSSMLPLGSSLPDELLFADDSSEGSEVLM
- Measurement Parameters: at 1 µM
Measured Metric: inhibition
Could you kindly put the unit after your number?

Record Nc1nccc(-c2c(-c3ccc(F)cc3)ncn2CCCN2CCOCC2)n1 : what is its inhibition with Tyrosine-protein kinase Mer (Homo sapiens) (UniProt Q12866)?
2.2%

Record NS(=O)(=O)c1ccc(Nc2cc(-c3cccc(O)c3)n[nH]2)cc1 : what is its inhibition with Tyrosine-protein kinase Mer (Homo sapiens) (UniProt Q12866)?
6.51%

Record Cc1ccc2c(-c3ccnc(Nc4ccc5c(c4)OCCO5)n3)c(-c3ccc(C(F)(F)F)cc3)nn2n1 : what is its inhibition with Tyrosine-protein kinase Mer (Homo sapiens) (UniProt Q12866)?
0.27%

###

- Tested on: Tyrosine-protein kinase ABL1 (Homo sapiens), P00519 [T315I]
- Measurement Parameters: at 1 µM
Measured Metric: inhibition (%)
Give a bare numeral; the unit % is implied.

COc1ccc(-c2nn3ncccc3c2-c2ccnc(Nc3cccc(C(F)(F)F)c3)n2)cc1 = 5.9
CN(C)CCCn1c(-c2nonc2N)nc2cnccc21 = 1.3
CCn1c(-c2nonc2N)nc2ccc(F)cc21 = 5.94
CN(c1ccc(NC(=O)Nc2ccc(OC(F)(F)F)cc2)cc1)c1ccnc(Nc2cccc(S(N)(=O)=O)c2)n1 = 86.2
COc1ccc2ncnc(Nc3ccc(OCc4ccccc4)cc3)c2c1 = 3.21

Which inhibition is reported for this compound? O=C1Nc2ccccc2/C1=C/Nc1ccc2[nH]c(=O)[nH]c2c1
23.7

Which inhibition is reported for this compound? NS(=O)(=O)c1ccc(NC=C2C(=O)Nc3ccc4ncsc4c32)cc1
61.6

Which inhibition is reported for this compound? COc1cc2ncnc(Nc3ccc4c(cnn4Cc4ccccc4)c3)c2cc1OC
7.47

Which inhibition is reported for this compound? CCOc1nccc2c1nc(-c1nonc1N)n2CC
6.12

Which inhibition is reported for this compound? Cc1ccc(NC(=O)CC2CC2)cc1-c1ccc(C(=O)NCC2CC2)cc1
2.68

Which inhibition is reported for this compound? COc1cccc(-n2ncc3c(N/N=C/c4ccc(C)cc4)ncnc32)c1
23.2

Which inhibition is reported for this compound? Cc1ccc2c(-c3ccnc(Nc4cccc(C(F)(F)F)c4)n3)c(-c3ccccc3)nn2n1
20.8

Which inhibition is reported for this compound? COC(=O)c1cncc(/C=C/c2c(C)cc(O)cc2C)c1
5.95

###

- System Under Test: Macrophage colony-stimulating factor 1 receptor (Homo sapiens) (UniProt P07333);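 further: value reported is the mean inhibition of FMS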
- Sequence (P07333 whole entry): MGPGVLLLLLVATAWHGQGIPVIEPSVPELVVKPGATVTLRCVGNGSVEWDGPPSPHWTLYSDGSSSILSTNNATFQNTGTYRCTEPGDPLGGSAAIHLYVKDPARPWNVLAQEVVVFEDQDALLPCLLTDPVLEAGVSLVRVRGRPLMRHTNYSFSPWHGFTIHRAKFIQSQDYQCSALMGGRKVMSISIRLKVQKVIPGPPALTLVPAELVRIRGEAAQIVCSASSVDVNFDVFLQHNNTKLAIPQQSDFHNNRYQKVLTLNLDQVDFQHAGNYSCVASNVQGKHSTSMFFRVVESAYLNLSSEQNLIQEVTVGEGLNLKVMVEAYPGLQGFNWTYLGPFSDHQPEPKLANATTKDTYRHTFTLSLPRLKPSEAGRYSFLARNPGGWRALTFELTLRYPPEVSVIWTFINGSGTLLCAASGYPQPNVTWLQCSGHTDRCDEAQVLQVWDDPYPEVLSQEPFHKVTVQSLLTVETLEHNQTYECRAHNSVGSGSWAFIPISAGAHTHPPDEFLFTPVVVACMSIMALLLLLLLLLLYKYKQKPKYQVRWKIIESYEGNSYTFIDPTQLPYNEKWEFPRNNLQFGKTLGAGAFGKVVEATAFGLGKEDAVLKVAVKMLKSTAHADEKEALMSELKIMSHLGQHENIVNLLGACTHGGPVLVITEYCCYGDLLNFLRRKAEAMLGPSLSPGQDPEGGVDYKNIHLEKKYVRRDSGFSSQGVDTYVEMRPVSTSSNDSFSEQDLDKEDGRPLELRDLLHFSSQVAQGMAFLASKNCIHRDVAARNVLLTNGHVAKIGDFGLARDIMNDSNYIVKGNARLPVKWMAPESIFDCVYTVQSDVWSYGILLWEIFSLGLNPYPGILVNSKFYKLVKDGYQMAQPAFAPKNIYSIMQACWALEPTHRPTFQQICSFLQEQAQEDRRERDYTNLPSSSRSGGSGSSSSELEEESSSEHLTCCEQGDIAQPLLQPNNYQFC
- Measurement Parameters: at 0.1 µM
Each entry below carries its reported inhibition.
Could you kindly put the unit after your number?

Guide cases for inhibition, answers given:
Cc1ccc(O)cc1Nc1ccnc2ccc(S(C)(=O)=O)cc12 = 5.71%
CN(C)C(=O)O[C@@H]1CN[C@@H](C#Cc2cc3ncnc(Nc4ccc(OCc5cccc(F)c5)c(Cl)c4)c3s2)C1 = -1.87%
[O-][S+]1CCN(Cc2ccc(-c3ccc4ncnc(Nc5ccc(OCc6ccccc6)c(Cl)c5)c4c3)o2)CC1 = -0.34%

Which inhibition is reported for this compound? O=C(Nc1ccc(Oc2ccc3[nH]c(NC(=O)c4ccco4)nc3c2)cc1)Nc1cc(C(F)(F)F)ccc1F
15.4%

Which inhibition is reported for this compound? Nc1ccc(C#Cc2cncnc2Nc2ccc(OCc3cccc(F)c3)c(Cl)c2)cc1
0.06%

Which inhibition is reported for this compound? COc1cc(/C=N/Nc2ncnc3c2cnn3C(C)C)ccc1O
8.23%

Which inhibition is reported for this compound? Cc1cc(Cl)cc2c1NC(=O)C2=NNc1ccc(S(N)(=O)=O)cc1
-2.64%

###

- System Under Test: Fibroblast growth factor receptor 3 (Homo sapiens) (UniProt P22607);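 further: each value is a mean percent inhibition of FGFR3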
- Sequence (P22607 23-806 limits assumed): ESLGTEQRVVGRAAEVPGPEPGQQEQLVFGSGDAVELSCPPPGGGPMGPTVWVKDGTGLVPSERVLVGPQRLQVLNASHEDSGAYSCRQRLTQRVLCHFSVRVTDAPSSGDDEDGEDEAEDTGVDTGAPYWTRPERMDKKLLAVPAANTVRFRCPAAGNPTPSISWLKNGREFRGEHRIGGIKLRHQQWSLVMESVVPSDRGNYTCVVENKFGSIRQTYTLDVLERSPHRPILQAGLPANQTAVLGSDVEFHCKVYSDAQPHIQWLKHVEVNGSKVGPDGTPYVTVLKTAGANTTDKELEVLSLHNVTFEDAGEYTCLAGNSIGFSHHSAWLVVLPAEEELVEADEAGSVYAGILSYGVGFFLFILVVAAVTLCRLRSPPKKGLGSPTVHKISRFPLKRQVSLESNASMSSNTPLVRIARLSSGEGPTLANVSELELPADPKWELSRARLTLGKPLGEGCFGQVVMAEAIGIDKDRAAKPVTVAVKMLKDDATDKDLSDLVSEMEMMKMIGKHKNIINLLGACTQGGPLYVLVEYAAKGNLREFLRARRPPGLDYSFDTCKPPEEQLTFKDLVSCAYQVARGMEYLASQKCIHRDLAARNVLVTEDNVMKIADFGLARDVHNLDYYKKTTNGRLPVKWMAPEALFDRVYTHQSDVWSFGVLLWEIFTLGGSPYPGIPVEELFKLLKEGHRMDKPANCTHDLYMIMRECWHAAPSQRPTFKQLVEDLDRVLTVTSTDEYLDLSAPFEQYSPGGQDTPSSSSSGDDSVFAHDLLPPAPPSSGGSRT
- Measurement Parameters: at 0.1 µM
Measured Metric: inhibition (%)
Give a bare numeral; the unit % is implied.

Guide cases for inhibition, answers given:
OCc1ccc(-c2nc(-c3ccccn3)c(-c3ccc4c(c3)OCO4)[nH]2)cc1 = 6.26
COC(=O)c1ccc2c(c1)C(=Cc1cc(Br)c(O)c(Br)c1)C(=O)N2 = 8.03
CCS(=O)(=O)c1ccc(OC)c(Nc2ncc(-c3cccc(OC)c3)o2)c1 = 28.7

Then this compound:
Which inhibition is reported for this compound? CN(c1ccc(NC(=O)Nc2ccc(OC(F)(F)F)cc2)cc1)c1ccnc(Nc2cccc(S(N)(=O)=O)c2)n1
3.87

###

Each entry below carries its reported inhibition.
- System Under Test: Homeodomain-interacting protein kinase 4 (Homo sapiens);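 further: values are mean percent inhibition of HIPK4 from the GSK PKIS kinase screen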
- Sequence (whole entry): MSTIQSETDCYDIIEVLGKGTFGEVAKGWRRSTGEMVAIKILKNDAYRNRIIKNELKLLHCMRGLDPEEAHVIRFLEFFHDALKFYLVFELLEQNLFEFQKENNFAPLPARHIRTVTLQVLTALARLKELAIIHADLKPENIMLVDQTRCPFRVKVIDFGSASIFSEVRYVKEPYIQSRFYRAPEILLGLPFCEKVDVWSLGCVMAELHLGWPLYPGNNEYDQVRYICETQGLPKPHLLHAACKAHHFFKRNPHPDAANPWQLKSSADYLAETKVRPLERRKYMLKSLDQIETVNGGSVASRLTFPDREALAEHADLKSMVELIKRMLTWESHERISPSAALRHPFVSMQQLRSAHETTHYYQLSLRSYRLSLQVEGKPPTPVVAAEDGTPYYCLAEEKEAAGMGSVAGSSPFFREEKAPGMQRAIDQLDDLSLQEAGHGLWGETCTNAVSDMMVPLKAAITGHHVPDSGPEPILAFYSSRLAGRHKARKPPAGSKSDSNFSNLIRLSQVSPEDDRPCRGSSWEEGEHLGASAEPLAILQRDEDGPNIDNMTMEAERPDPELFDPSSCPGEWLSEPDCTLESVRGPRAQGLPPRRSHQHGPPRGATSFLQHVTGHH
- Measurement Parameters: at 1 µM
Give a bare numeral; the unit % is implied.

Guide cases for inhibition, answers given:
N#Cc1cccc(Nc2nccc(-c3cnn4ncccc34)n2)c1 = 88.1
O=S(=O)(CCOCc1ccc(-c2ccc3ncnc(Nc4ccc(OCc5cccc(F)c5)c(Cl)c4)c3c2)o1)c1ccccc1 = 5.69
COc1cccc(-n2ncc3c(N/N=C/c4ccc(C)cc4)ncnc32)c1 = 11.4
Nc1ccc(C#Cc2cncnc2Nc2ccc(OCc3cccc(F)c3)c(Cl)c2)cc1 = 0.28
Cc1nc(-c2ccccc2)n2nc(NCCCN3CCOCC3)ncc12 = 14.4

Then this compound:
Which inhibition is reported for this compound? O=C1Nc2ccc(-c3cccnc3)cc2C1=Cc1cc(Br)c(O)c(Br)c1
13.8
